biological target: α-thrombin (Homo sapiens, UniProt P00734); test: Competitive binding assay: α-thrombin binding to fluoresceinated γ′ 408-427 peptide; set-up: incubating 2 nM fluoresceinated peptide with 2 μM α-thrombin; thrombin: gift of Dr. John Fenton, II and Dr. Walter Kisiel; tracer peptide: Research Genetics; details: 2 nM fluoresceinated peptide with 2 μM α-thrombin
Ends that are not written are not given here.
property: Inhibition of α-thrombin binding to fluoresceinated γ′ 408-427 peptide (in words)

[
  {
    "substance": "VRPEHPAETEYDSLYPEDDL [nonphosphorylated peptide]",
    "assay value": "completely inactive"
  },
  {
    "substance": "VRPEHPAETEY(*)DSLY(*)PE (VRPEHPAETEYDSLYPE; not fully specified (residues 11, 15); printed as VRPEHPAETEY(*)DSLY(*)PE) [peptide 408-424]",
    "assay value": "lower affinity"
  },
  {
    "substance": "AETEY(*)DSLY(*)PEDDL (AETEYDSLYPEDDL; not fully specified (residues 5, 9); printed as AETEY(*)DSLY(*)PEDDL) [peptide 414-427]",
    "assay value": "lower affinity"
  },
  {
    "substance": "EY(*)DSLY(*)PEDDL (EYDSLYPEDDL; not fully specified (residues 2, 6); printed as EY(*)DSLY(*)PEDDL) [peptide 417-427]",
    "assay value": "completely inactive"
  }
]
